src = patent US20220033501A1

Below, each entry is listed with its recorded Mean fluorescence intensity.
Biological target: T1, human TIM-3 on CHOK1 stable cell line (CHOK1-hTIM-3) (human, UniProt Q8TDQ0 22-301)
T1 sequence: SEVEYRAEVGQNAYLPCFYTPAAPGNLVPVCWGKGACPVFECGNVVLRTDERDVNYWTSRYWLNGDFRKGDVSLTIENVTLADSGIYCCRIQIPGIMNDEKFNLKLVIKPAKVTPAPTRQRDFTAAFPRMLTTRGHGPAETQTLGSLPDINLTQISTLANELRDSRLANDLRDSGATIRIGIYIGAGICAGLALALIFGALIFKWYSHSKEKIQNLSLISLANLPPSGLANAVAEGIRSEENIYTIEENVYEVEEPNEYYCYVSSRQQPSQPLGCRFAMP
Assay: FACS, CHOK1-hTIM-3 cells, 8 nM antibody
Field format: numeric only.

134H3G6 fully human TIM-3 antibody (human IgG4, kappa) (antibody, V domains shown) VH: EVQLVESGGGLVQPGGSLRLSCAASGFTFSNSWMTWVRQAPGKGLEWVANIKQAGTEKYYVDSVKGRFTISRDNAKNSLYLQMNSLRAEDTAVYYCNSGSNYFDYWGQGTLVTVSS VL: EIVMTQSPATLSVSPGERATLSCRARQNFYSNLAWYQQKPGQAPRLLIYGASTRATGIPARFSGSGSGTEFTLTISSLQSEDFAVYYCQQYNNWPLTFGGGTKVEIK	229
7A4F10 fully human TIM-3 antibody (human IgG4, kappa) (antibody, V domains shown) VH: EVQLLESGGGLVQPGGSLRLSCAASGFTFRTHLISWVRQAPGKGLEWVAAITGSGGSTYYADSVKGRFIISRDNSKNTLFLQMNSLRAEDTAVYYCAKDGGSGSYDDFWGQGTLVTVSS VL: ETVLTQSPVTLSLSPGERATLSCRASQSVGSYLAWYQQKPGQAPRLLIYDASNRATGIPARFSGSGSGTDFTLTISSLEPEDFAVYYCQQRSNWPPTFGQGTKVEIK	308
57F4E5 fully human TIM-3 antibody (human IgG4, kappa) (antibody, V domains shown) VH: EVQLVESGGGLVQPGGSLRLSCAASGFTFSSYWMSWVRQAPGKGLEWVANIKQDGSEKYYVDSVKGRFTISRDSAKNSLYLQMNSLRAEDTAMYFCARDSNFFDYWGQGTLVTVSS VL: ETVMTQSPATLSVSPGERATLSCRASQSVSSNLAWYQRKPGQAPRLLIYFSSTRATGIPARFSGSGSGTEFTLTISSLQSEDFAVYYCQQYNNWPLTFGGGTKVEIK	154

Supply measured Mean fluorescence intensity of 18D2H2 fully human TIM-3 antibody (human IgG4, kappa) (antibody, V domains shown) VH: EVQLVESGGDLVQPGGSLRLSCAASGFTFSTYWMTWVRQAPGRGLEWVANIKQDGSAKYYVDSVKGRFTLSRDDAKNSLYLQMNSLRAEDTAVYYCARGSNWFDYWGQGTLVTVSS VL: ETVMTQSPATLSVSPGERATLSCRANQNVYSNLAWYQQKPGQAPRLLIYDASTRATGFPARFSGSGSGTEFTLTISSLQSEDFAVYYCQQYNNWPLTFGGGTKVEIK in your reply.
268

Supply measured Mean fluorescence intensity of 34B6D8 fully human TIM-3 antibody (human IgG4, kappa) (antibody, V domains shown) VH: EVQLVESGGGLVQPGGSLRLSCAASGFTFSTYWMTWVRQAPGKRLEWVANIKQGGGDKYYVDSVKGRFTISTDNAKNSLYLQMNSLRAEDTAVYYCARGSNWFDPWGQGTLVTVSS VL: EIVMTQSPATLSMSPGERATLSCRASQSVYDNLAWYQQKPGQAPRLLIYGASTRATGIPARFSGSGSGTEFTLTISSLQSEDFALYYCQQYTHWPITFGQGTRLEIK in your reply.
219

Supply measured Mean fluorescence intensity of 39E5H1 fully human TIM-3 antibody (human IgG4, kappa) (antibody, V domains shown) VH: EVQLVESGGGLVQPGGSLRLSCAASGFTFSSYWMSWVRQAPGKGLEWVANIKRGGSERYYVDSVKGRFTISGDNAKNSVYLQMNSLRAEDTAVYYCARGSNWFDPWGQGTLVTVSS VL: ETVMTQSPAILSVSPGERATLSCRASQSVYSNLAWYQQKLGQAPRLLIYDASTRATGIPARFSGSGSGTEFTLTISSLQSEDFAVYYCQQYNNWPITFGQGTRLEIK in your reply.
234
